- experimentalTarget: CASK, O14936
- Sequence (O14936 487-570): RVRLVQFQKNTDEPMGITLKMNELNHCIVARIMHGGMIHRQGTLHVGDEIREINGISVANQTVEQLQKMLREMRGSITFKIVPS
- procedureDetails: holdup assay
- Set-up: key: below the threshold = too weak to quantify, mostly under pKd 3.1 to 4
- runConditions: plain residues with an end cap or a label only (N-terminal biotin on a linker: ado-ado)
measurementKind: pKd

1) NTALVESEDL [PALLS, Q8WX93;Q8WX93-1] = below the threshold
2) MLPANYVEAI [NEB, P20929] = below the threshold
3) QKNKDREYYV [NRXN3, Q9HDB5] = 3.55
4) SGDGKTSVWI [GJC1, P36383] = below the threshold
